# Protocol: Solubility of the compound at pH 6.5
# Type: physicochemical
# Condition context: buffer
Please go through the items and note down their solubility.

For reference, reported solubility for N=C(N/N=C(\CO)c1ccc(Cl)cc1)N/N=C(\CO)c1ccc(Cl)cc1 stands at < 1.6 µg/mL

// N=C(N/N=C/c1ccc(Cl)cc1)N/N=C/c1ccc(Cl)cc1 : solubility value = < 1.6 µg/mL

For reference, reported solubility for CC(C)(C)c1ccc(/C=N/NC(=N)N/N=C/c2ccc(C(C)(C)C)cc2)cc1 stands at < 1.6 µg/mL

* * *

# Protocol: Toxicity in po dosed male rabbit
# Type: organism-based, Oryctolagus cuniculus
# Condition context: in vivo
Measured metric: LD50 (mg/kg)
Dear colleague, please return just the value in mg/kg, with no unit written.

Given item N=C(N/N=C/c1ccc(Cl)cc1)N/N=C/c1ccc(Cl)cc1 , the value recorded as its LD50 is 1500

The measurements presented in this section are drawn from ChEMBL document CHEMBL3779887.
